- testedSystem: mIDH1R132H (Homo sapiens (Human), UniProt O75874, R132H)
- Sequence (O75874 whole entry R132H): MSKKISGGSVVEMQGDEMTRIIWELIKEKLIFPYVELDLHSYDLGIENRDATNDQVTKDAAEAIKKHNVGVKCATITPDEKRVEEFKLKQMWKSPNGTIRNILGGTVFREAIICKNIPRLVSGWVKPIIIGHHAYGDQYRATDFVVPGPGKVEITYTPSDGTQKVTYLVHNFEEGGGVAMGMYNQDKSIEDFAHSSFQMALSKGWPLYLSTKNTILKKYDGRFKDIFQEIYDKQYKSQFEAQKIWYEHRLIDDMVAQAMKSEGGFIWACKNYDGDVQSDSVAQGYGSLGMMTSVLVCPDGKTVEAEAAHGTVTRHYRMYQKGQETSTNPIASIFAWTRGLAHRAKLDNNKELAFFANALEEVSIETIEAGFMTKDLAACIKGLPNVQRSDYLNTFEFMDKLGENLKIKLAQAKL
- measurementDescription: mIDH1 R132H enzymatic activity assay (NADPH fluorescence)
- measurementConditions: enzyme assay; read-out: IDH1R132H IC50
attributeMeasured: IC50 (nM)

compound="C=CC(=O)N1CCN(C2CCCC/C=C/CN3C(=O)OCc4cnc(nc43)N[C@@H](C)c3ccc2cc3)CC1 (some centres unmarked)" u=nM obsvalue=3.3
compound="C=CC(=O)N1CCN(C2CCCCCCCN3C(=O)OCc4cnc(nc43)N[C@@H](C)c3ccc2cc3)CC1 (some centres unmarked)" u=nM obsvalue=4

====

- testedSystem: TF1 IDH2R140Q (Homo sapiens (Human), UniProt P48735, R140Q)
- measurementDescription: TF1 IDH2 R140Q 2-HG cellular assay
- Assay type: cell-based
- measurementConditions: extracellular 2HG, 24 hr treatment, IDH2 mutant-TF1 isogenic cell line
Threshold-based label: IC50 under 500 nM gives label 1, IC50 not under 500 nM gives label 0.

molecule="C=CC(=O)N1CCN(C2CCC/C=C/CN3C(=O)OCc4cnc(nc43)N[C@@H](C)c3ccc2cc3)CC1 (stereo partly shown)" testedsystem="TF1 IDH2R140Q (Homo sapiens (Human), UniProt P48735, R140Q)" classlabel="label 0"
molecule="C=CC(=O)N1CCN(C2CCCCCCN3C(=O)OCc4cnc(nc43)N[C@@H](C)c3ccc2cc3)CC1 (single isomer, unassigned) [Example 7]" testedsystem="TF1 IDH2R140Q (Homo sapiens (Human), UniProt P48735, R140Q)" classlabel="label 1"
molecule="C=CC(=O)N1CCN(C2CCCC/C=C/CN3C(=O)OCc4cnc(nc43)N[C@@H](C)c3ccc2cc3)CC1 (stereo partly shown)" testedsystem="TF1 IDH2R140Q (Homo sapiens (Human), UniProt P48735, R140Q)" classlabel="label 1"
molecule="C=CC(=O)N1CCN(C2CCCC/C=C/CCN3C(=O)OCc4cnc(nc43)N[C@@H](C)c3ccc2cc3)CC1 (stereo partly shown)" testedsystem="TF1 IDH2R140Q (Homo sapiens (Human), UniProt P48735, R140Q)" classlabel="label 1"
molecule="C=CC(=O)N1CCN(C2COCCCC[C@H](C)N3C(=O)OCc4cnc(nc43)N[C@@H](C)c3ccc2cc3)CC1 (stereo partly shown)" testedsystem="TF1 IDH2R140Q (Homo sapiens (Human), UniProt P48735, R140Q)" classlabel="label 0"
molecule="C=CC(=O)N1CCN(C2CCCCCCCCN3C(=O)OCc4cnc(nc43)N[C@@H](C)c3ccc2cc3)CC1 (stereo partly shown)" testedsystem="TF1 IDH2R140Q (Homo sapiens (Human), UniProt P48735, R140Q)" classlabel="label 1"

====

This listing pairs compounds with measured IC50.
- testedSystem: mIDH2R140Q (Homo sapiens (Human), UniProt P48735, R140Q)
- Sequence (P48735 40-452 R140Q): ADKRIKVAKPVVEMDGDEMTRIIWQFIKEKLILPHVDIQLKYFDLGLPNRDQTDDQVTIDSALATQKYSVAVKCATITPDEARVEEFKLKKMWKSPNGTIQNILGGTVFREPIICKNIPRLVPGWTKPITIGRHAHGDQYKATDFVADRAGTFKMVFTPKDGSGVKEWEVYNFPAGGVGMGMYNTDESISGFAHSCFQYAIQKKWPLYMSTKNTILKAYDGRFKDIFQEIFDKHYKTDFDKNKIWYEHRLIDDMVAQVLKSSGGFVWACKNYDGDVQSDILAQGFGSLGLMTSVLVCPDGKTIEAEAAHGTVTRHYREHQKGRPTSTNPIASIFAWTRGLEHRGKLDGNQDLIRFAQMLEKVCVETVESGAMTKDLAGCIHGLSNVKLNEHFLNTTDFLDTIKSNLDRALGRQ
- measurementDescription: mIDH2 R140Q enzymatic activity assay (NADPH fluorescence)
- measurementConditions: enzyme assay, 1 hour preincubation; read-out: IDH2R140Q IC50
attributeMeasured: IC50 (nM)

compound="C=CC(=O)N1CCN(C2CCCCCC[C@H](C)N3C(=O)OCc4cnc(nc43)N[C@@H](C)c3ccc2cc3)CC1 (some centres unmarked)" testedsystem="mIDH2R140Q (Homo sapiens (Human), UniProt P48735, R140Q)" obsvalue=1490
compound="C=CC(=O)N1CCN(C2CCCCCCN3C(=O)OCc4cnc(nc43)N[C@@H](C)c3ccc2cc3)CC1 (single isomer, unassigned) [Example 7]" testedsystem="mIDH2R140Q (Homo sapiens (Human), UniProt P48735, R140Q)" obsvalue=1730
compound="C=CC(=O)N1CCN(C2CCCCCCN3C(=O)OCc4cnc(nc43)N[C@@H](C)c3ccc2cc3)CC1 (single isomer, unassigned) [Example 8]" testedsystem="mIDH2R140Q (Homo sapiens (Human), UniProt P48735, R140Q)" obsvalue=4730
compound="C=CC(=O)N1CCN(C2CCCCCCCN3C(=O)OCc4cnc(nc43)N[C@@H](C)c3ccc2cc3)CC1 (some centres unmarked)" testedsystem="mIDH2R140Q (Homo sapiens (Human), UniProt P48735, R140Q)" obsvalue=1680
compound="C=CC(=O)N1CCN(C2CC/C=C\\CCCCN3C(=O)OCc4cnc(nc43)N[C@@H](C)c3ccc2cc3)CC1 (some centres unmarked)" testedsystem="mIDH2R140Q (Homo sapiens (Human), UniProt P48735, R140Q)" obsvalue=1840
compound="C=CC(=O)N1CCN(C2CCCC/C=C/CN3C(=O)OCc4cnc(nc43)N[C@@H](C)c3ccc2cc3)CC1 (some centres unmarked)" testedsystem="mIDH2R140Q (Homo sapiens (Human), UniProt P48735, R140Q)" obsvalue=1440
compound="C=CC(=O)N1CCN(C2CCCCCCCCN3C(=O)OCc4cnc(nc43)N[C@@H](C)c3ccc2cc3)CC1 (some centres unmarked)" testedsystem="mIDH2R140Q (Homo sapiens (Human), UniProt P48735, R140Q)" obsvalue=1320
compound="C=CC(=O)N1CCN(C2COCCCC[C@H](C)N3C(=O)OCc4cnc(nc43)N[C@@H](C)c3ccc2cc3)CC1 (some centres unmarked)" testedsystem="mIDH2R140Q (Homo sapiens (Human), UniProt P48735, R140Q)" obsvalue=4990
